Let's look at some compounds and their measured speed of sound.
- experimental_conditions: 303.15 K; 101.3 kPa; Liquid; Sing-around technique in a fixed-path interferometer

- compound: "CCCCO"
  speed of sound, m/s: 1222.9
- compound: "CCCCn1cc[n+](C)c1.COS(=O)(=O)[O-] [1-butyl-3-methylimidazolium methyl sulfate]"
  speed of sound, m/s: 1642.2
- compound: "CCCO"
  speed of sound, m/s: 1189.3
- compound: "CC(C)O"
  speed of sound, m/s: 1121.4
- compound: "CO"
  speed of sound, m/s: 1088.3

###

- experimental_conditions: 298.15 K; 101.3 kPa; Liquid; Vibrating tube method

- compound: "CCCO [propan-1-ol]"
  mass density (kg/m3): 800.008
- compound: "CCCCO [butan-1-ol]"
  mass density (kg/m3): 805.93
- compound: "CC(C)O [propan-2-ol]"
  mass density (kg/m3): 781.123
- compound: "CO [methanol]"
  mass density (kg/m3): 787.405
- compound: "CCCCn1cc[n+](C)c1.COS(=O)(=O)[O-] [1-butyl-3-methylimidazolium methyl sulfate]"
  mass density (kg/m3): 1212.06

###

Here, each record is paired with measured refractive index data.
- protocol_notes: refractive index (Na D-line) (dimensionless)
- experimental_conditions: 303.15 K; 101.33 kPa; Liquid; Standard Abbe refractometry
quantity_name: refractive index

- compound: "CCCCO [butan-1-ol]"
  quantity_name: "refractive index"
  recorded_value: 1.39549
- compound: "CC(C)O [propan-2-ol]"
  quantity_name: "refractive index"
  recorded_value: 1.37314
- compound: "CO [methanol]"
  quantity_name: "refractive index"
  recorded_value: 1.32552
- compound: "CCCO [propan-1-ol]"
  quantity_name: "refractive index"
  recorded_value: 1.38131
- compound: "CCCCn1cc[n+](C)c1.COS(=O)(=O)[O-] [1-butyl-3-methylimidazolium methyl sulfate]"
  quantity_name: "refractive index"
  recorded_value: 1.47704

###

- experimental_conditions: 313.15 K; 101.3 kPa; Liquid; Vibrating tube method

- molecule: "CCCO [propan-1-ol]"
  scale_unit: "kg/m3"
  mass density: 787.772
- molecule: "CCCCn1cc[n+](C)c1.COS(=O)(=O)[O-] [1-butyl-3-methylimidazolium methyl sulfate]"
  scale_unit: "kg/m3"
  mass density: 1202.01
- molecule: "CC(C)O [propan-2-ol]"
  scale_unit: "kg/m3"
  mass density: 768.053
- molecule: "CO [methanol]"
  scale_unit: "kg/m3"
  mass density: 773.168
- molecule: "CCCCO [butan-1-ol]"
  scale_unit: "kg/m3"
  mass density: 794.301

###

- protocol_notes: refractive index (Na D-line) (dimensionless)
- experimental_conditions: 308.15 K; 101.33 kPa; Liquid; Standard Abbe refractometry
Entries and their refractive index values follow.

- compound: "CCCCO"
  refractive index: 1.39342
- compound: "CC(C)O"
  refractive index: 1.37093
- compound: "CCCO"
  refractive index: 1.37926
- compound: "CO"
  refractive index: 1.32362
- compound: "CCCCn1cc[n+](C)c1.COS(=O)(=O)[O-] [1-butyl-3-methylimidazolium methyl sulfate]"
  refractive index: 1.47577

From: the NIST ThermoML archive (doi:10.1016/j.jct.2012.08.030)
